I'd be grateful if you could share measured NADPH fluorescence slope for these entries.
molecular target: Voltage-gated potassium channel subunit beta-2 (Rattus norvegicus); experiment: KvBeta positive modulators, primary screen, biochemical, NADPH fluorescence (AID 623); settings: Recombinant KvBeta, NADPH fluorescence decrease slope, 10 min; at 10 µM; active compounds read low;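 further: fluorescence intensity change per second fitted from 20 to 320 s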
Lab note: jot the number down without any unit.

NADPH fluorescence slope measured on COc1ccccc1N1C(=O)C2ON(c3ccccc3)C(c3ccc(N(C)C)cc3)C2C1=O (configuration not stated) = -3e-05

NADPH fluorescence slope measured on C=CCn1c(SCC(=O)c2ccccc2)nnc1-c1ccc2c(c1)OCO2 = -3.6e-05

NADPH fluorescence slope measured on COc1ccccc1-c1nnc2sc(COc3ccccc3)nn12 = -0.000151

NADPH fluorescence slope measured on O=C1CCC(=O)N1c1nc2nc(-c3ccccc3)cc(-c3ccccc3)n2n1 = -3e-05

NADPH fluorescence slope measured on COC(=O)CN(c1nc(C)c(Br)c(OC)n1)S(=O)(=O)c1ccc(C)cc1 = -2.1e-05

NADPH fluorescence slope measured on CC(C)Oc1ccc(C(=O)CCN2CCCCC2)cc1 = 2.6e-05

NADPH fluorescence slope measured on CCOC(=O)C1=C(N)c2ccccc2CC1C(C)C (configuration not stated) = -2.5e-05

NADPH fluorescence slope measured on CC[C@]1(O)CC2CN(CCc3c([nH]c4ccccc34)[C@@](C(=O)OC)(c3cc4c(cc3OC)N(C=O)[C@H]3[C@@](O)(C(=O)OC)[C@H](OC(C)=O)[C@]5(CC)C=CCN6CC[C@]43[C@@H]65)C2)C1 (some centres not stated) = -3.8e-07

NADPH fluorescence slope measured on CCOc1ccc(Cn2c(O)cc(=O)[nH]c2=O)cc1 = 9.9e-06

NADPH fluorescence slope measured on CN1CCc2c(sc3c2c(=O)n(-c2ccccc2)c2nnc(SCc4ccccc4)n32)C1 = -1.4e-05

NADPH fluorescence slope measured on N/C(CCN1CCOCC1)=N/O = -1.6e-05

NADPH fluorescence slope measured on Cc1ccc(S(=O)(=O)NCC(=O)OCN2C(=O)c3ccccc3C2=O)cc1 = 4e-05

NADPH fluorescence slope measured on Cn1nnnc1-c1cc(Br)ccc1NC(=O)c1ccccc1 = 7.2e-07

NADPH fluorescence slope measured on COC(=O)/C(=C1/Oc2cc(C)oc(=O)c2S1)C(F)(F)F = -0.000106

NADPH fluorescence slope measured on CSc1nc(NC(C)=O)nc(C)c1Cl = -7.4e-06

NADPH fluorescence slope measured on N#Cc1c(-c2ccco2)cc(C2CC2)nc1N = -0.00027

NADPH fluorescence slope measured on COC(=O)c1sc(NC(C)=O)c(C(=O)OC)c1C = -9.3e-05

NADPH fluorescence slope measured on Cc1c(NC(=O)c2ccc(=O)oc2)c(=O)n(-c2ccccc2)n1C = -7.6e-06

NADPH fluorescence slope measured on O=C(NC1CCCCC1)Nn1c(-c2ccccc2)nc2ccccc2c1=O = -0.000129

NADPH fluorescence slope measured on Brc1c(NC2=NCCN2)ccc2nccnc12 = 1.1e-06

NADPH fluorescence slope measured on COc1ccccc1Cn1c2nc3ccccc3nc2c2c(=O)n(CC(C)C)cnc21 = -0.000144

NADPH fluorescence slope measured on CC[N+](C)(CC)CCOC(=O)C(O)(c1ccccc1)C1CCCCC1 (configuration not stated) = -2.6e-05

NADPH fluorescence slope measured on O=C1C(CCS(=O)c2ccccc2)C(=O)N(c2ccccc2)N1c1ccccc1 (configuration not stated) = -4.2e-05

NADPH fluorescence slope measured on COc1ccc2c(c1OC)C(=O)N1c3ccccc3C(=O)N(c3ccccc3)C21 (configuration not stated) = -5.5e-06

NADPH fluorescence slope measured on COc1ccc2c(c1OC)C(=O)N1c3ccccc3C(=O)N(c3ccc(F)cc3)C21 (configuration not stated) = -2.1e-05

NADPH fluorescence slope measured on Nc1[nH]nc2nc(NCc3ccccc3)c3c(c12)CCN(Cc1ccccc1)C3 = -6.3e-05

NADPH fluorescence slope measured on O=C(NCc1ccco1)c1cnn2c1NC(c1ccccc1)CC2C(F)(F)F (configuration not stated) = -4e-05

Values compiled from PubChem BioAssay.
